Just for reference, ChEMBL document CHEMBL1141948 is where these values come from.

Biological target: Trypsin (Homo sapiens, UniProt P07477+P07478+P35030)
Test: Binding affinity to trypsin
Type: protein assay
Response field label: string, one of y (Ki strictly below 7 µM) or n.

Use these answered entries as a reference point.
C=Cc1cc(OC2CCOCC2)cc(C(Nc2ccc(C(=N)N)cc2)C(=O)O)c1 (configuration not stated) ... n
CCOc1cc(-c2ccccc2)cc(C(Nc2ccc(C(=N)N)cc2)C(=O)O)c1 (configuration not stated) ... n
CCOc1cc(OC2CCN(S(C)(=O)=O)CC2)cc(C(Nc2ccc(C(=N)N)cc2)C(=O)O)c1 (configuration not stated) ... y
C#Cc1cc(O[C@H]2CCOC2)cc(C(Nc2ccc(C(=N)N)cc2)C(=O)O)c1 (some centres not stated) ... y

--- query ---
Record CCOc1cc(C(Nc2ccc(C(=N)N)cc2)C(=O)O)ccc1OCc1ccccc1 (configuration not stated) : is its Ki strictly below 7 µM?
y
